assay: chemical genetic growth profiling, strain panel (AID 1159580);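 also: tested at 20 µM; growth read once vehicle control cultures reached saturation at 30 °C; 1 = growth at the plate median or of vehicle wells; lower values mean less growth of the strain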; conditions: S. cerevisiae deletion strains, growth OD, locus YJL187C, strain SWE1 (second series)
In all, about 5,500 compounds went through this assay and about 2,000 (36%) were called active. Not shown: some 18% with an inconclusive outcome. Rule as the data show it: active = normalized growth mostly below about 0.91 (no sharp cut-off); inconclusive = no clear call, values can overlap the other calls; inactive = mostly above about 0.92. The list shows a part of the results.
Labels: active, inactive

molecule: COc1cc(O)cc(/C=C/c2ccccc2)c1
class-name: active
//
molecule: C/C=C/c1ccc(OC)cc1
class-name: inactive
//
molecule: NC(=O)c1cc[n+](CC2=C(C(=O)O)N3C(=O)C(NC(=O)C(c4ccccc4)S(=O)(=O)[O-])C3SC2)cc1 (stereo not given)
class-name: inactive
//
molecule: Oc1cc(O)cc(/C=C/c2ccccc2)c1
class-name: inactive
//
molecule: CCCN(CCC)C(=O)C(CCC(=O)O)NC(=O)c1ccccc1 (stereo not given)
class-name: inactive
//
molecule: C[C@@H]1CC2C3CCC4=CC(=O)C=C[C@]4(C)[C@@]3(F)[C@@H](O)C[C@]2(C)[C@@]1(O)C(=O)COP(=O)(O)O (stereo not given in full)
class-name: inactive
//
molecule: COc1cc(C(=O)O)cc(OC)c1O
class-name: inactive
//
molecule: CCOc1ccc2c(c1)C(C)=CC(C)(C)N2
class-name: inactive
//
molecule: O=c1ccn([C@@H]2O[C@H](COP(=O)(O)OP(=O)(O)OP(=O)(O)O)[C@@H](O)[C@H]2O)c(=O)[nH]1
class-name: inactive
//
molecule: COc1ccc(C[C@H](N)C(=O)N[C@@H]2[C@@H](CO)OC(n3cnc4c(N(C)C)ncnc43)[C@@H]2O)cc1 (stereo not given in full)
class-name: inactive

====

assay: chemical genetic growth profiling, strain panel (AID 1159580);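 also: tested at 20 µM; growth read once vehicle control cultures reached saturation at 30 °C; 1 = growth at the plate median or of vehicle wells; lower values mean less growth of the strain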; conditions: S. cerevisiae deletion strains, growth OD, locus YDR101C, strain arx1, active compounds read low
The campaign covered roughly 5,500 compounds. About 2,000 (36%) were called active. Another 18% or so got no clear call; they are omitted. Some of the results follow.

compound: NC(=O)c1cnccn1
normalized growth: 1

compound: CC12CCCC(O)(C1)C1CC(C)(C)C1CC2 (stereo unspecified)
normalized growth: 0.985

compound: CC(=O)O[C@H]1CC[C@@]2(C)C(=CCC3C2CC[C@]2(C)C(=O)CCC32)C1 (stereo partly specified)
normalized growth: 0.932

compound: CC1(C)CC2C1CCC1(C)OC1CCC2(C)O (stereo unspecified)
normalized growth: 0.987

compound: C#C[C@]1(O)CCC2C3CCc4cc(O)ccc4C3CC[C@@]21C (stereo partly specified)
normalized growth: 0.956

compound: Cc1cccc(CN2CCN(C(c3ccccc3)c3ccc(Cl)cc3)CC2)c1 (stereo unspecified)
normalized growth: 0.935

====

Listed below: normalized growth values for each entry.
assay: chemical genetic growth profiling, strain panel (AID 1159580);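 also: tested at 20 µM; growth read once vehicle control cultures reached saturation at 30 °C; 1 = growth at the plate median or of vehicle wells; lower values mean less growth of the strain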; conditions: S. cerevisiae deletion strains, growth OD, locus YDL040C, strain nat1, active compounds read low
About 2,000 (36%) of roughly 5,500 compounds were called active. Not shown: some 18% with an inconclusive outcome. The list shows a part of the results.

compound: CC1=C(/C=C/C(C)=C/C=C/C(C)=C/CO)C(C)(C)CCC1
normalized growth: 0.998
//
compound: OC/C=C/c1ccc(O)c(O)c1
normalized growth: 0.988
//
compound: O=C1N=C(O)CN1/N=C\c1ccc(-c2ccc([N+](=O)[O-])cc2)o1
normalized growth: 0.978
//
compound: O=C(/C=C/c1ccc(O)c(O)c1)O[C@@H]1C[C@](O)(C(=O)O)C[C@@H](O)[C@H]1O
normalized growth: 0.98
//
compound: Oc1ccc(/C=C/c2cc(O)cc(O)c2)cc1
normalized growth: 0.982
//
compound: c1ccc2[nH]c(-c3cscn3)nc2c1
normalized growth: 1.01
//
compound: CC1=C(/C=C/C(C)=C/C=C/C(C)=C/C(=O)O)C(C)(C)CCC1
normalized growth: 1
//
compound: O=C1OCCN1/N=C\c1ccc([N+](=O)[O-])o1
normalized growth: 1
//
compound: NC(=O)N/N=C\c1ccc([N+](=O)[O-])o1
normalized growth: 0.995
//
compound: CC[C@@H]1[C@@H](O)N2C3C[C@H]1C1C(O)[C@]4(C[C@@H]12)c1ccccc1N(C)[C@@H]34 (stereo not given in full)
normalized growth: 1.03
